Provenance of the data: patent US7781454B2

- System Tested: mutant HIV reverse transcriptase (K103N mutation) (Human immunodeficiency virus type 1 group M subtype B, UniProt P04585, K690N)
- Construct: against mutant HIV reverse transcriptase; made in house
- Test Name: ECL assay for inhibition of mutant HIV reverse transcriptase (K103N)
- Assay type: biochemical
- Protocol: 100 μL reaction mixtures were initiated with a combination of primer-template substrate ([…]) and dNTPs (0.6 μM dNTPs, 1.25 μM BrdUTP). […] A mixture of detection buffer containing ruthenylated anti-BrdU antibody and streptavidin coated magnetic beads were added to the plate and incubated at room temperature for 1.5 hours prior to quantification via electrochemiluminescence instrument. […]
pIC50: −log10 of the molar value. Counter-ions that a name gives are not always drawn.
Readout Type: pIC50

                                   compound  endpoint_value
0  N#Cc1cc(Cl)cc(Oc2c(Cl)ccc3c2ncn3Cc2n[nH]c3nc(N)ccc23)c1 [Example 10, bis(trifluoroacetate)]            7.89
1  Cc1ccn2c(Cc3n[nH]c4ncccc34)ncc2c1Oc1cc(Cl)cc(C#N)c1 [Example 25, trifluoroacetate]            7.43
2  NCc1cc(Cl)cc(Oc2c(Cl)ccc3c2nnn3Cc2n[nH]c3ncccc23)c1 [Example 17, trifluoroacetate]            7.10
3  Cc1ccn2c(Cc3n[nH]c4ncccc34)nnc2c1Oc1cc(Cl)cc(C#N)c1 [Example 26, trifluoroacetate]            6.09
4  N#Cc1cc(Cl)cc(Oc2c(Cl)ccc3c2ncn3Cc2n[nH]c3ncccc23)c1 [Example 7, dihydrochloride]            8.39

====

- System Tested: mutant HIV reverse transcriptase (K103N mutation) (Human immunodeficiency virus type 1 group M subtype B, UniProt P04585, K690N)
- Construct: against mutant HIV reverse transcriptase; made in house
- Test Name: ECL assay for inhibition of mutant HIV reverse transcriptase (K103N)
- Type: biochemical
- Experimental Parameters: K103N mutant RT; read-out: ECL Assay (K103N) IC50
pIC50: −log10 of the molar value.
Label t for high-side pIC50 (at or above 8) and f for low-side pIC50 (below it).

                                    compound  classification
 0  N#Cc1cc(Cl)cc(Oc2c(Cl)ccc3c2CCCN3Cc2n[nH]c3ncccc23)c1               f
 1  NCc1cc(Cl)cc(Oc2c(Cl)ccc3c2nnn3Cc2n[nH]c3ncccc23)c1Cl               t
 2  N#Cc1cc(Cl)cc(Oc2c(Cl)ccc3c2nnn3CC(=O)Nc2ccccc2Cl)c1               t
 3    N#Cc1cc(Cl)cc(Oc2c(Cl)ccc3c2nnn3CCO)c1               f
 4  N#Cc1cc(Cl)cc(Oc2c(Cl)ccc3c2nnn3CC(=O)Nc2ccncc2C(F)(F)F)c1               t
 5  N#Cc1cc(Cl)cc(Oc2c(Cl)ccc3c2cnn3Cc2n[nH]c3nc(N)ccc23)c1               t
 6  N#Cc1cc(Cl)cc(Oc2c(Cl)ccc3nn(Cc4n[nH]c5ncccc45)nc23)c1Cl               f
 7  N#Cc1cc(Cl)cc(Oc2c(Cl)ccc3c2nnn3Cc2n[nH]c3nc(N)ccc23)c1               t
 8  N#Cc1cc(Cl)cc(Oc2c(Cl)ccc3c2nnn3Cc2n[nH]c3ncccc23)c1               t
 9  N#Cc1cc(Cl)cc(Oc2c(Cl)ccc3c2nnn3Cc2n[nH]c3ncccc23)c1Cl               t
10  N#Cc1cc(Cl)cc(Oc2c(Cl)ccc3c2nnn3CC(=O)N2CCCC(C(N)=O)C2)c1 (centres unmarked)               f
